Value source: ChEMBL document CHEMBL2086296

# System: HOP-92
# EXPERIMENTAL DETAILS: Cytotoxicity against human HOP92 cells after 24 hrs by SRB assay
# Assay type: cell-based
# MEASUREMENT SETUP: hop-92, 24 h
RESULT TYPE: LC50

{"INPUT SMILES": "O=C(/C=C/c1cc2ccccc2[nH]c1=O)c1ccc(Cl)cc1", "RESULT TYPE": "LC50", "RESULT": "> 100 µM"}
{"INPUT SMILES": "COc1ccc(C(=O)/C=C/c2cc3ccccc3[nH]c2=O)cc1", "RESULT TYPE": "LC50", "RESULT": "80.9 µM"}
{"INPUT SMILES": "O=C(/C=C/c1cc2ccccc2[nH]c1=O)c1ccc(O)cc1", "RESULT TYPE": "LC50", "RESULT": "> 100 µM"}
{"INPUT SMILES": "O=C(/C=C/c1cc2ccccc2[nH]c1=O)/C=C/c1cc2ccccc2[nH]c1=O", "RESULT TYPE": "LC50", "RESULT": "> 100 µM"}

* * *

Listing of recorded LC50 by entry.
# Tested on: CAKI-1
# EXPERIMENTAL DETAILS: Cytotoxicity against human CAKI-1 cells after 24 hrs by SRB assay
# Assay type: cell-based
# MEASUREMENT SETUP: caki-1, 24 h
RESULT TYPE: LC50 (µM)

{"INPUT SMILES": "O=C(/C=C/c1cc2ccccc2[nH]c1=O)c1ccc(Cl)cc1", "REPORTED RELATION": "=", "NUMERIC RESULT": 6.8}
{"INPUT SMILES": "O=C(/C=C/c1cc2ccccc2[nH]c1=O)c1ccc(O)cc1", "REPORTED RELATION": ">", "NUMERIC RESULT": 100}
{"INPUT SMILES": "COc1ccc(C(=O)/C=C/c2cc3ccccc3[nH]c2=O)cc1", "REPORTED RELATION": "=", "NUMERIC RESULT": 6.9}
{"INPUT SMILES": "O=C(/C=C/c1cc2ccccc2[nH]c1=O)/C=C/c1cc2ccccc2[nH]c1=O", "REPORTED RELATION": ">", "NUMERIC RESULT": 100}

* * *

# Test system: SF-295
# EXPERIMENTAL DETAILS: Cytotoxicity against human SF295 cells after 24 hrs by SRB assay
# Format: functional
# MEASUREMENT SETUP: SF-295, 24 h
# maps each entry to its GI50
RESULT TYPE: GI50 (µM)

{"INPUT SMILES": "O=C(/C=C/c1cc2ccccc2[nH]c1=O)/C=C/c1cc2ccccc2[nH]c1=O", "NUMERIC RESULT": 2.64}
{"INPUT SMILES": "COc1ccc(C(=O)/C=C/c2cc3ccccc3[nH]c2=O)cc1", "NUMERIC RESULT": 3.98}
{"INPUT SMILES": "O=C(/C=C/c1cc2ccccc2[nH]c1=O)c1ccc(O)cc1", "NUMERIC RESULT": 7.04}
{"INPUT SMILES": "O=C(/C=C/c1cc2ccccc2[nH]c1=O)c1ccc(Cl)cc1", "NUMERIC RESULT": 4.57}

* * *

LC50 overview
# Tested on: NCI-H460
# EXPERIMENTAL DETAILS: Cytotoxicity against human NCI-H460 cells after 24 hrs by SRB assay
# Type: cell-based
# MEASUREMENT SETUP: nci-h460, 24 h
RESULT TYPE: LC50

{"INPUT SMILES": "O=C(/C=C/c1cc2ccccc2[nH]c1=O)/C=C/c1cc2ccccc2[nH]c1=O", "RESULT TYPE": "LC50", "RESULT": "> 100 µM"}
{"INPUT SMILES": "COc1ccc(C(=O)/C=C/c2cc3ccccc3[nH]c2=O)cc1", "RESULT TYPE": "LC50", "RESULT": "66.8 µM"}
{"INPUT SMILES": "O=C(/C=C/c1cc2ccccc2[nH]c1=O)c1ccc(Cl)cc1", "RESULT TYPE": "LC50", "RESULT": "> 100 µM"}
{"INPUT SMILES": "O=C(/C=C/c1cc2ccccc2[nH]c1=O)c1ccc(O)cc1", "RESULT TYPE": "LC50", "RESULT": "> 100 µM"}

* * *

The following molecules are shown together with reported TGI values.
# Test system: T47D
# EXPERIMENTAL DETAILS: Cytotoxicity against human T47D cells after 24 hrs by SRB assay
# Type: functional

{"INPUT SMILES": "COc1ccc(C(=O)/C=C/c2cc3ccccc3[nH]c2=O)cc1", "TGI": "> 100 µM"}
{"INPUT SMILES": "O=C(/C=C/c1cc2ccccc2[nH]c1=O)/C=C/c1cc2ccccc2[nH]c1=O", "TGI": "> 100 µM"}
{"INPUT SMILES": "O=C(/C=C/c1cc2ccccc2[nH]c1=O)c1ccc(Cl)cc1", "TGI": "> 100 µM"}
{"INPUT SMILES": "O=C(/C=C/c1cc2ccccc2[nH]c1=O)c1ccc(O)cc1", "TGI": "20.4 µM"}

* * *

Reported values of LC50 for individual entries
# Tested on: BT-549
# EXPERIMENTAL DETAILS: Cytotoxicity against human BT549 cells after 24 hrs by SRB assay
# Format: cell-based
# MEASUREMENT SETUP: bt-549, 24 h
RESULT TYPE: LC50 (µM)

{"INPUT SMILES": "O=C(/C=C/c1cc2ccccc2[nH]c1=O)/C=C/c1cc2ccccc2[nH]c1=O", "REPORTED RELATION": ">", "NUMERIC RESULT": 100}
{"INPUT SMILES": "O=C(/C=C/c1cc2ccccc2[nH]c1=O)c1ccc(O)cc1", "REPORTED RELATION": ">", "NUMERIC RESULT": 100}
{"INPUT SMILES": "COc1ccc(C(=O)/C=C/c2cc3ccccc3[nH]c2=O)cc1", "REPORTED RELATION": "=", "NUMERIC RESULT": 46.3}
{"INPUT SMILES": "O=C(/C=C/c1cc2ccccc2[nH]c1=O)c1ccc(Cl)cc1", "REPORTED RELATION": "=", "NUMERIC RESULT": 97.6}
